Data origin: patent US20140348819A1

This section presents molecules with their documented ability of recombinant RTK ligand to confer resistance values.
Test system: six V600E BRAF melanoma cell lines
assay-explanation: Screening of recombinant RTK ligands for ability to confer resistance to BRAFi (PLX4720) or MEKi (PD184352) (Table 4)
Type: cell-based, human
Set-up: scale not given here
condition-details: SK-MEL-28, PD184352 - 1 uM, ligand 1.6 ng/ml
value-kind: ability of recombinant RTK ligand to confer resistance

molecule | test-result
GDNF (protein, UniProt P39905 78-211, looked up) Glial cell line-derived …: SPDKQMAVLPRRERNRQAAAANPENSRGKGRRGQRGKNRGCVLTAIHLNVTDLGLGYETKEELIFRYCSGSCDAAETTYDKILKNLSRNRRLVSDKVGQACCRPIAFDDDLSFLDDNLVYHILRKHSAKRCGCI | 1.03
BDNF (protein, UniProt P23560 19-247, looked up) Neurotrophic factor BDNF …: APMKEANIRGQGGLAYPGVRTHGTLESVNGPKAGSRGLTSLADTFEHVIEELLDEDQKVRPNEENNKDADLYTSRVMLSSQVPLEPPLLFLLEEYKNYLDAANMSMRVRRHSDPARRGELSVCDSISEWVTAADKKTAVDMSGGTVTVLEKVPVSKGQLKQYFYETKCNPMGYTKEGCRGIDKRHWNSQCRTTQSYVRALTMDSKKRIGWRFIRIDTSCVCTLTIKRGR | 1.04
Ephrin-A4 (protein, UniProt P52798 26-170, looked up) Ephrin-A4: LRHVVYWNSSNPRLLRGDAVVELGLNDYLDIVCPHYEGPGPPEGPETFALYMVDWPGYESCQAEGPRAYKRWVCSLPFGHVQFSEKIQRFTPFSLGFEFLPGETYYYISVPTPESSGQCLRLQVSVCCKERKSESAHPVGSPGES | 0.98
